System: human MET
assay.remarks: MET biochemical kinase assay
Parameters: concentration or dose not given beside the values
Below is a list of entries, each paired with its recorded Met Kinase % Inhibition value.
The reply should contain only the number, in %.

Example molecules with recorded Met Kinase % Inhibition:
[[record]]
molecule = "CNS(=O)(=O)c1ccc2c(c1)C(=Cc1ccc(O)c(Br)c1)C(=O)N2 [10734/D09]"
readout_value = 88.0

[[record]]
molecule = "COc1ccc(C=C2C(=O)Nc3ccc(S(=O)(=O)N4CCOCC4)cc32)c(OC)c1 [10719/F04]"
readout_value = 3.3

[[record]]
molecule = "COc1cc(OC)c(C=C2C(=O)Nc3ccc(CCCl)cc32)c(OC)c1 [10719/G06]"
readout_value = "−18.1"

[[record]]
molecule = "Cc1cn(C)cc1C=C1C(=O)Nc2ccc(S(=O)(=O)Nc3ccc(C(F)(F)F)cc3)cc21 [10726/E06]"
readout_value = "−7.4"

[[record]]
molecule = "COc1cc(OC)c(C=C2C(=O)Nc3ccc(S(=O)(=O)N4CCOCC4)cc32)c(OC)c1 [10719/F06]"
readout_value = "−22.0"

[[record]]
molecule = "Cc1ccc(C=C2C(=O)Nc3ccc(I)cc32)o1 [10725/B04]"
readout_value = 90.4

[[record]]
molecule = "CC(C)(C)c1cc(C=C2C(=O)Nc3ccc(CCCl)cc32)cc(C(C)(C)C)c1O [10721/G11]"
readout_value = "−0.0"

[[record]]
molecule = "O=C1Nc2ccc(S(=O)(=O)N3CCOCC3)cc2C1=Cc1cc(O)c(O)c(Br)c1 [10723/F04]"
readout_value = 94.0


Asked: What does the data say about its Met Kinase % Inhibition? Entry: CCCCN(CCCC)c1ccc(C=C2C(=O)Nc3c(Br)cc(Br)cc32)cc1 [10722/A10]
Given back: 79.0

Asked: What does the data say about its Met Kinase % Inhibition? Entry: Cc1cc(C=C2C(=O)Nc3c(Br)cc(Br)cc32)sc1C [10721/A04]
Given back: 85.0

Asked: What does the data say about its Met Kinase % Inhibition? Entry: CNS(=O)(=O)c1ccc2c(c1)C(=Cc1cc(OC)ccc1O)C(=O)N2 [10720/D10]
Given back: 51.0

Asked: What does the data say about its Met Kinase % Inhibition? Entry: COc1cc(Br)cc(C=C2C(=O)Nc3ccc(CCCl)cc32)c1O [10733/G08]
Given back: 79.0

Asked: What does the data say about its Met Kinase % Inhibition? Entry: O=C1Nc2ccc(I)cc2C1=Cc1csc([N+](=O)[O-])c1 [10722/B09]
Given back: 59.7

Asked: What does the data say about its Met Kinase % Inhibition? Entry: Cc1c(Br)ccc2c1C(=Cc1cccn1C)C(=O)N2 [10717/C04]
Given back: 25.0

Asked: What does the data say about its Met Kinase % Inhibition? Entry: CNS(=O)(=O)c1ccc2c(c1)C(=Cc1ccc(Br)cc1)C(=O)N2 [10717/D08]
Given back: 16.0

Asked: What does the data say about its Met Kinase % Inhibition? Entry: Cc1c(Br)ccc2c1C(=Cc1cccn1-c1ccc(Cl)cc1)C(=O)N2 [10724/C09]
Given back: 5.3

Asked: What does the data say about its Met Kinase % Inhibition? Entry: CNS(=O)(=O)c1ccc2c(c1)C(=Cc1ccc(N3CCN(C=O)CC3)cc1)C(=O)N2 [10725/D07]
Given back: 37.0

Asked: What does the data say about its Met Kinase % Inhibition? Entry: CNS(=O)(=O)c1ccc2c(c1)C(=Cc1cc(C(C)C)c(O)c(C(C)C)c1)C(=O)N2 [10724/D06]
Given back: 23.0

Asked: What does the data say about its Met Kinase % Inhibition? Entry: O=C1Nc2ccc(I)cc2C1=Cc1ccc(Cl)s1 [10721/B07]
Given back: 47.1

Asked: What does the data say about its Met Kinase % Inhibition? Entry: COc1c(C)cc(C=C2C(=O)Nc3ccc(Br)c(C)c32)cc1C [10733/C06]
Given back: 4.1

Asked: What does the data say about its Met Kinase % Inhibition? Entry: CNS(=O)(=O)c1ccc2c(c1)C(=Cc1cc(C)c(OCc3ccccc3)c(C)c1)C(=O)N2 [10733/D07]
Given back: −6.8

Asked: What does the data say about its Met Kinase % Inhibition? Entry: CNS(=O)(=O)c1ccc2c(c1)C(=Cc1cc(C)c(C)o1)C(=O)N2 [10730/D11]
Given back: 9.7

Asked: What does the data say about its Met Kinase % Inhibition? Entry: Cc1c(Br)ccc2c1C(=Cc1cc(Cl)c(OCc3ccccc3)c(C(C)(C)C)c1)C(=O)N2 [10732/C10]
Given back: 43.0

Asked: What does the data say about its Met Kinase % Inhibition? Entry: COc1ccc(C=C2C(=O)Nc3ccc(S(=O)(=O)N4CCOCC4)cc32)c(OC)c1OC [10730/F02]
Given back: −6.2

Asked: What does the data say about its Met Kinase % Inhibition? Entry: O=C1Nc2ccc(S(=O)(=O)Nc3ccc(C(F)(F)F)cc3)cc2C1=Cc1c[nH]cn1 [10725/E11]
Given back: 9.6

Asked: What does the data say about its Met Kinase % Inhibition? Entry: CCN(CC)c1ccc(C=C2C(=O)Nc3ccc(S(=O)(=O)Nc4ccc(C(F)(F)F)cc4)cc32)cc1 [10727/E02]
Given back: 28.0

Asked: What does the data say about its Met Kinase % Inhibition? Entry: O=C1Nc2ccc(CCCl)cc2C1=Cc1ccc(O)cc1 [10719/G07]
Given back: 24.0

Asked: What does the data say about its Met Kinase % Inhibition? Entry: Cc1cc(C)c(C=C2C(=O)Nc3ccc(CCCl)cc32)[nH]1 [10721/G08]
Given back: −2.4

Asked: What does the data say about its Met Kinase % Inhibition? Entry: CNS(=O)(=O)c1ccc2c(c1)C(=Cc1cc(Cl)cc(Br)c1O)C(=O)N2 [10727/D04]
Given back: 76.0

Asked: What does the data say about its Met Kinase % Inhibition? Entry: O=C1Nc2ccc(S(=O)(=O)N3CCOCC3)cc2C1=Cc1ccc(O)c(O)c1O [10723/F02]
Given back: 99.0

Asked: What does the data say about its Met Kinase % Inhibition? Entry: Cc1c(Br)ccc2c1C(=Cc1c(Br)cnn1-c1ccc(Cl)cc1)C(=O)N2 [10725/C10]
Given back: −0.6

Asked: What does the data say about its Met Kinase % Inhibition? Entry: CC(C)(C)c1cc(C=C2C(=O)Nc3ccc(I)cc32)cc(Cl)c1O [10722/B08]
Given back: 72.0

Asked: What does the data say about its Met Kinase % Inhibition? Entry: CNS(=O)(=O)c1ccc2c(c1)C(=Cc1cc(Br)cc(OC)c1O)C(=O)N2 [10733/D08]
Given back: 80.0

Asked: What does the data say about its Met Kinase % Inhibition? Entry: Cn1c(C=C2C(=O)Nc3ccc(I)cc32)nc2ccccc21 [10721/B02]
Given back: 82.6

Asked: What does the data say about its Met Kinase % Inhibition? Entry: O=C1Nc2ccc(S(=O)(=O)N3CCOCC3)cc2C1=Cc1c[nH]c2ccccc12 [10717/F06]
Given back: 49.0

Asked: What does the data say about its Met Kinase % Inhibition? Entry: Cc1cc(C=C2C(=O)Nc3c(Br)cc(Br)cc32)oc1C [10730/A11]
Given back: 91.0

---

Below is a list of entries, each paired with its recorded Met Kinase % Inhibition value.
Tested on: human MET
assay.remarks: MET biochemical kinase assay
Design: concentration or dose not given beside the values
The reply should contain only the number, in %.

[[record]]
smiles = "O=C1Nc2c(Br)cc(Br)cc2C1=Cc1ccc(F)cc1Cl"
readout_label = "Met Kinase % Inhibition"
readout_value = 47.0

[[record]]
smiles = "Cc1cc(C=C2C(=O)Nc3ccc(S(=O)(=O)N4CCOCC4)cc32)cc(C)c1OCc1ccccc1"
readout_label = "Met Kinase % Inhibition"
readout_value = "−16.4"

[[record]]
smiles = "Cc1cc(C=C2C(=O)Nc3ccc(S(=O)(=O)N4CCOCC4)cc32)sc1C"
readout_label = "Met Kinase % Inhibition"
readout_value = 26.0


Asked: What does the data say about its Met Kinase % Inhibition? Entry: CNS(=O)(=O)c1ccc2c(c1)C(=Cc1cc3ccccc3nc1Cl)C(=O)N2
Given back: −13.6

---

System: human MET
assay.remarks: MET biochemical kinase assay
Parameters: concentration or dose not given beside the values
readout.label: Met Kinase % Inhibition (%)
The reply should contain only the number, in %.

Example molecules with recorded Met Kinase % Inhibition:
[[record]]
smiles = "CC(C)(C)c1cc(C=C2C(=O)Nc3ccc(S(=O)(=O)Nc4ccc(C(F)(F)F)cc4)cc32)cc(C(C)(C)C)c1OCc1ccccc1"
readout_label = "Met Kinase % Inhibition"
readout_value = 2.9

[[record]]
smiles = "O=C1Nc2ccc(S(=O)(=O)Nc3ccc(C(F)(F)F)cc3)cc2C1=Cc1c[nH]c(=O)[nH]c1=O"
readout_label = "Met Kinase % Inhibition"
readout_value = 59.0


Asked: What does the data say about its Met Kinase % Inhibition? Entry: Cc1c(Br)ccc2c1C(=Cc1ccc(Br)o1)C(=O)N2
Given back: 58.0

Asked: What does the data say about its Met Kinase % Inhibition? Entry: O=C1Nc2ccc(I)cc2C1=Cc1cc2c(cc1Cl)OCO2
Given back: 91.0

Asked: What does the data say about its Met Kinase % Inhibition? Entry: Cc1c(Br)ccc2c1C(=Cc1ccccc1Sc1ccc(Cl)cc1)C(=O)N2
Given back: 8.9

Asked: What does the data say about its Met Kinase % Inhibition? Entry: Cc1c(Br)ccc2c1C(=Cc1ccc(O)c(C(C)(C)C)c1)C(=O)N2
Given back: −4.7

Asked: What does the data say about its Met Kinase % Inhibition? Entry: CCn1c2ccccc2c2cc(C=C3C(=O)Nc4ccc(S(=O)(=O)NC)cc43)ccc21
Given back: 8.7

Asked: What does the data say about its Met Kinase % Inhibition? Entry: N#Cc1ccc(C=C2C(=O)Nc3ccc(S(=O)(=O)N4CCOCC4)cc32)cc1
Given back: 9.3

Asked: What does the data say about its Met Kinase % Inhibition? Entry: Cc1c(Br)ccc2c1C(=Cc1ccc(O)cc1O)C(=O)N2
Given back: 83.0

Asked: What does the data say about its Met Kinase % Inhibition? Entry: COc1cccc(OC)c1C=C1C(=O)Nc2ccc(CCCl)cc21
Given back: 8.8
